Experiment: Oral bioavailability in dog at 5 mg/kg
Assay type: ADME, organism-based, Canis lupus familiaris
Conditions: in vivo
# maps each entry to its bioavailability
quantity: bioavailability (%)

smiles_text=Cc1ncn(C)c1NC(=O)[C@H]1CCC[C@@H](N(C)C(=O)c2cccc(C(F)(F)F)c2)C1 quantity=bioavailability endpoint_unit=% numeric_value=66
smiles_text=Cc1ncn(C)c1-c1nnc([C@@H]2C[C@H](N(C)C(=O)c3cccc(C(F)(F)F)c3)CCO2)[nH]1 quantity=bioavailability endpoint_unit=% numeric_value=78
smiles_text=Cc1ncn(C)c1-c1nnc([C@H]2CCC[C@@H](N(C)C(=O)c3cccc(Cl)c3)C2)[nH]1 quantity=bioavailability endpoint_unit=% numeric_value=86
